Reported log10 of Ki values for the following compounds.
Target: Langerin ECD (Homo sapiens, UniProt Q9UJ71, V278A)
Construct: residues 148 to 328; TEV site (C); StreptagII (C)
Sequence (Q9UJ71 148-328 V278A): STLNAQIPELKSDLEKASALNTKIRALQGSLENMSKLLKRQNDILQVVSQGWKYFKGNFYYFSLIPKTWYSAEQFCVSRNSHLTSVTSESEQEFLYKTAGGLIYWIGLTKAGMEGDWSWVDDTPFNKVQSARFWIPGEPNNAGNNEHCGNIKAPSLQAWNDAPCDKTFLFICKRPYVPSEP
Test: 19F R2-filtered NMR reporter displacement assay (Ki determination)
Details: Langerin ECD 50 μM, pH 7.8, 25° C.
Heads up: the numbers are on a log10 scale; they represent Ki in mM.

Reference set (3 entries):
Q: I'd like to know its log10 of Ki. The compound in question is O=S(=O)(O)N[C@H]1C(O)O[C@H](CO)[C@@H](O)[C@@H]1O (stereo partly shown) [GlcNS, glucosamine-2-sulfate]
Result: 0.15

Q: Ok, now OC[C@H]1OC(O)[C@H](O)[C@@H](O)[C@@H]1O (stereo partly shown)
Result: 1.32

Q: Again, but for `O=C[C@@H](O)[C@@H](O)[C@H](O)[C@H](O)CO`
Result: 0.65

Next:
Q: Need log10 of Ki, item CC(=O)N[C@H]1C(O)O[C@H](COS(=O)(=O)O)[C@@H](O)[C@@H]1O (stereo partly shown) [GlcNAc-6-OS, N-acetyl glucosamine-6-sulfate]
Result: -0.22

Q: Follow-up item: O=S(=O)(O)N[C@H]1C(O)O[C@H](COS(=O)(=O)O)[C@@H](O)[C@@H]1O (stereo partly shown) [GlcNS-6-OS, glucosamine-2-sulfate-6-sulfate]
Result: -0.55

Q: And the next one, CC(=O)N[C@H]1C(O)O[C@H](CO)[C@@H](O)[C@@H]1O (stereo partly shown) ?
Result: 0.61

Q: Likewise for `CC(=O)NCCO[C@H]1O[C@H](CO)[C@@H](O)[C@H](O)[C@@H]1O` ?
Result: 1.00

---

Biological target: Langerin CRD (Homo sapiens, UniProt Q9UJ71, V278A)
Construct: residues 193 to 328
Sequence (Q9UJ71 193-328 V278A): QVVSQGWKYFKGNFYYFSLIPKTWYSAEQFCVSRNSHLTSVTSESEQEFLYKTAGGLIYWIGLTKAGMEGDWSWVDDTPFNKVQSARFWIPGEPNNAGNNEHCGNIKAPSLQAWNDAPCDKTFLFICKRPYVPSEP
Assay: 15N HSQC NMR titration (KD determination)
measured-property: pKd
Remember the convention: pKd equals -log10 of concentration in molar.

Q: State the recorded pKd for this entry: CC(=O)NCCO[C@H]1O[C@H](CO)[C@@H](O)[C@H](O)[C@@H]1O [Man analog 21]
Result: 1.92
